Data origin: PubChem BioAssay AID778

# TESTED_TARGET: Cytochrome P450 2C19 (Homo sapiens)
# ASSAY: blockers of cytochrome P450 2C19 activity – biochemical, luminescence, ADME assay, primary screen (AID 778);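 note: plate controls were negative control wells for no effect and 2.5 mM tranylcypromine positive control for full effect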
# CONDITION_CONTEXT: CYP2C19 Supersomes, luciferin-H EGE luminescence, 30 min; at 5 µM; active compounds read high
Screen size: about 96,000 compounds; about 20,000 (21%) were called active. Not all results are given here.
RECORDED_METRIC: inhibition (%)
Form entry: value (%) — number only.

Consider the reported inhibition for these compounds:
> print(dat)
                                   compound  observed.measurement
1  Cc1ccc(S(=O)(=O)NCC(=O)OCC(=O)N2CCc3ccccc32)cc1                  -3.8
2         O=C(O)c1cccc2c1C(=O)N(C1CCCCC1)C2                 -19.3
3              Cc1cccc2c(=O)n3c(nc12)CCCCC3                  28.1
4  CCOC(=O)N1CCC(NC(=O)CN2C(=O)COc3ccc(C(C)(C)C)cc32)CC1                  10.8
5      CCN(C(=O)CSc1ncn[nH]1)c1cccc2ccccc12                  63.2
6      O=C(NCCCCCCNC(=O)NCc1ccco1)NCc1ccco1                 -12.7
7  CC(C)(C)NS(=O)(=O)c1ccc(NC(=O)NC2CCCCC2)cc1                     8
8  CCOC(=O)CNC(=O)c1nn(-c2cccc(OC)c2)c(=O)c2ccccc12                   5.3

## Task Item under review: `c1cc(-c2nn[nH]n2)ccc1CN1CCCCC1` . Reported inhibition?
## Result -11.4

## Task Item under review: `N#Cc1c(NC(=O)CSc2nc3ccccc3c(=O)n2Cc2ccco2)sc2c1CCCC2` . Reported inhibition?
## Result -5.2

* * *

# TESTED_TARGET: Cytochrome P450 2C19 (Homo sapiens) (UniProt P33261)
# Sequence (P33261 whole entry, looked up): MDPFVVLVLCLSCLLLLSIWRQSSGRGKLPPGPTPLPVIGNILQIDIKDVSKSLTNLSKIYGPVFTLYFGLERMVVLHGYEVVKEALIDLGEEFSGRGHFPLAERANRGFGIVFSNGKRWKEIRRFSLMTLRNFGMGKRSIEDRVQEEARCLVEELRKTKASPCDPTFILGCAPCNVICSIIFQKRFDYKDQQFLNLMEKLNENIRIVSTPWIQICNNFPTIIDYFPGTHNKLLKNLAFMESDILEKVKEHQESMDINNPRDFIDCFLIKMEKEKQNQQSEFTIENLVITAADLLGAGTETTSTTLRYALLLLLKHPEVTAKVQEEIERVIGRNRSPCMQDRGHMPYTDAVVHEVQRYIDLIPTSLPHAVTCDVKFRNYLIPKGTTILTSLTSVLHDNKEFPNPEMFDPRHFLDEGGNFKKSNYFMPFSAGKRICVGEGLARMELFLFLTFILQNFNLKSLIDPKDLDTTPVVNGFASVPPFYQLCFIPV
# ASSAY: blockers of cytochrome P450 2C19 activity – biochemical, luminescence, ADME assay, primary screen (AID 778);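 note: plate controls were negative control wells for no effect and 2.5 mM tranylcypromine positive control for full effect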
# CONDITION_CONTEXT: CYP2C19 Supersomes, luciferin-H EGE luminescence, 30 min; at 5 µM
The campaign covered roughly 96,000 compounds. About 20,000 (21%) were called active.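 How the source made its calls: active means CYP2C19 inhibition above a set limit at 5 µM in the primary screen (cut at about 50% in these data); inactive means the rest.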 Only a sample is shown.
Allowed answers: 1.0 for active, 0.0 for inactive

Here are 6 molecules together with their reported answers.
> print(dat)
                                   molecule                             tested.target  label.value
1  O=C(NCCc1ccccn1)c1cc(C(=O)C2CCCCC2)c[nH]1  Cytochrome P450 2C19 (Homo sapiens) (UniProt P33261)          0.0
2  O=C(CN(Cc1ccccc1)C(=O)c1ccc2c(c1)OCCO2)NCc1ccc2c(c1)OCO2  Cytochrome P450 2C19 (Homo sapiens) (UniProt P33261)          0.0
3  Cc1cc(C)c2cc(CN(Cc3cccs3)Cc3nnnn3CC3CCCO3)c(=O)[nH]c2c1 (configuration not stated)  Cytochrome P450 2C19 (Homo sapiens) (UniProt P33261)          1.0
4  O=C(NCC1CCCO1)/C(=C\c1ccco1)NC(=O)c1ccccc1 (configuration not stated)  Cytochrome P450 2C19 (Homo sapiens) (UniProt P33261)          0.0
5  CCCCNC(=O)c1ccccc1NC(=O)c1ccccc1N(C)S(C)(=O)=O  Cytochrome P450 2C19 (Homo sapiens) (UniProt P33261)          0.0
6  CC(=O)NC(Cc1ccc(F)cc1)C(=O)O (configuration not stated)  Cytochrome P450 2C19 (Homo sapiens) (UniProt P33261)          0.0

Moving on to another molecule below.
## Task Record request — test call for `Cc1cccc(NC(=O)/C(=C\c2ccco2)NC(=O)c2ccccc2)c1`
## Result 0.0
